Assign cleavage of the SUMO fusion protein to each entry below.
Biological target: bdSUMO D67K-MBP fusion protein

Use the examples below as a reference point.
bdSENP1^Muti (protein) PFVPLTDEDEDNVRHALGGRKKSETLSVHEASHIVITREILQCLNDKEWLNDEVINLYLELLKERELREPNKFLKCHFFNTFFYKKLINGGYDYKSVREWTTRRKLGYNLIDCDKIFVPIHKDVHWCLAVINIKEKKFQYLDSLGYMDMKALRILAKYLVDEVKDKSGKQIDVHAWKQEGVQNLPLQENGWDCGMFMLKYIDFYSRDMELVFGQKHMSYFRRRTAKEILDLKAG; < 25 % cleavage
bdSENP1^MutJ (protein) PFVPLTDEDEDNVRHALGGRKESETLSVHEASSIVITREILQCLNDKEWLNDEVINLYLELLKERELREPNKFLKCHFFNTFFYKKLINGGYDYKSVRSWTTTRKLGYNLIDCDKIFVPIHKDVHWCLAVINIKEKKFQYLDSLGYMDMKALRILAKYLVDEVKDKSGKQIDVHAWKQEGVQNLPLQENGWDCGMFMLKYIDFYSRDMELVFGQKHMSYFRRRTAKEILDLKAG; 100 % cleavage
bdSENP1^MutH (protein) PFVPLTDEDEDNVRHALGGRKPSETLSVHEASAIVITREILQCLNDKEWLNDEVINLYLELLKERELREPNKFLKCHFFNTFFYKKLINGYDYKSVREWTTMRKLGYNLIDCDKIFVPIHKDVHWCLAVINIKEKKFQYLDSLGYMDMKALRILAKYLVDEVKDKSGKQIDVHAWKQEGVQNLPLQENGWDCGMFMLKYIDFYSRDMELVFGQKHMSYFRRRTAKEILDLKAG; < 75 % cleavage
bdSENP1^MutK (protein) PFVPLTDEDEDNVRHALGGRKVSETLSVHEASQIVITREILQCLNDKEWLNDEVINLYLELLKERELREPNKFLKCHFFNTFFYKKLINGGYDYKSVRVWTTGRKLGYNLIDCDKIFVPIHKDVHWCLAVINIKEKKFQYLDSLGYMDMKALRILAKYLVDEVKDKSGKQIDVHAWKQEGVQNLPLQENGWDCGMFMLKYIDFYSRDMELVFGQKHMSYFRRRTAKEILDLKAG; 100 % cleavage

Pending protein:
Record request: cleavage of the SUMO fusion protein value, item bdSENP1 from B. distachyon (protein) PFVPLTDEDEDNVRHALGGRKRSETLSVHEASNIVITREILQCLNDKEWLNDEVINLYLELLKERELREPNKFLKCHFFNTFFYKKLINGGYDYKSVRRWTTKRKLGYNLIDCDKIFVPIHKDVHWCLAVINIKEKKFQYLDSLGYMDMKALRILAKYLVDEVKDKSGKQIDVHAWKQEGVQNLPLQENGWDCGMFMLKYIDFYSRDMELVFGQKHMSYFRRRTAKEILDLKAG
< 25 % cleavage
